- System under test: human ether-à-go-go-related gene (hERG) potassium channel (human)
- Sequence (Q12809 whole entry, looked up): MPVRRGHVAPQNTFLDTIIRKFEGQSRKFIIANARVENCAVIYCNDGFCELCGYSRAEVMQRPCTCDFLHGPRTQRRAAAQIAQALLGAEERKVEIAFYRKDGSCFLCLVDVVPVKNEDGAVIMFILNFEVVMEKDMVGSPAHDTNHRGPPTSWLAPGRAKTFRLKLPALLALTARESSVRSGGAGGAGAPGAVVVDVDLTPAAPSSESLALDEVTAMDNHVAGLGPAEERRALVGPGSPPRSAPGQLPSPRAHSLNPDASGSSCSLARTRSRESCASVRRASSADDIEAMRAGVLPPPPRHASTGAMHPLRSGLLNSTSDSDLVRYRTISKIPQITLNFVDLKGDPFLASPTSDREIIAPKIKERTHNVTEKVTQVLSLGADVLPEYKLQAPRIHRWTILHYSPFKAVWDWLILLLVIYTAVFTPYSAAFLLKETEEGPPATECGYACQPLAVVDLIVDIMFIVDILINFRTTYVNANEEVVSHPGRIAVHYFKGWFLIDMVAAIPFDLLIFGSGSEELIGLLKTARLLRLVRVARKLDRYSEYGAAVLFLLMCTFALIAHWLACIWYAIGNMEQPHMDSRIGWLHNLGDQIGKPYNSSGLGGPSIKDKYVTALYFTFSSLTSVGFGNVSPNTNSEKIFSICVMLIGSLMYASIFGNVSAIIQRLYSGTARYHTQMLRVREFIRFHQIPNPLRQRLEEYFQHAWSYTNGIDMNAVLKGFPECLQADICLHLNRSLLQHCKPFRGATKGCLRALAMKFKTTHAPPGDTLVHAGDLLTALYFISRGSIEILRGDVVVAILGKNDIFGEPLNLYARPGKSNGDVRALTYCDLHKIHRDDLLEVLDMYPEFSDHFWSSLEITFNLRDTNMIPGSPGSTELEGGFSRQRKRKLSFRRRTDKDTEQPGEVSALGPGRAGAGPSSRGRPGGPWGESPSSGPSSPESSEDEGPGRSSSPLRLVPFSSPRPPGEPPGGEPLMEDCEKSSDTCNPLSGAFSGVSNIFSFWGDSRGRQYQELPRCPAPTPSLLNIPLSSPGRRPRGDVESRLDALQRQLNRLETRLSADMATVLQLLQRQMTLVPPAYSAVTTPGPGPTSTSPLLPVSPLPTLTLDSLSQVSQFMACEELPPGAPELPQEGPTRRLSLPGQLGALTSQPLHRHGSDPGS
- Assay remarks: primary screen, population patch clamp on CHO cells stably expressing hERG; higher = less effect of the substance
Screen size: about 310,000 compounds; about 2,200 (0.71%) showed an effect of 50% or more. Effects have a minus sign here. What follows is part of a selection rich in strong results, with near analogues and random picks from the rest.
Lab note: anything with hERG current change (%, negative = inhibition) at 1uM at or over -20% counts as Satisfied; the rest go in Not satisfied.

Task: Answer whether hERG current change (%, negative = inhibition) at 1uM of COc1cc2c(cc1OC)CN(c1nc(CN3CCCCC3)nc3sc4c(c13)CCCC4)CC2 is greater than or equal to -20%.
Result: Not satisfied

Task: Answer whether hERG current change (%, negative = inhibition) at 1uM of O=C(Nc1ccccc1)N1CCN(c2ncccn2)CC1 is greater than or equal to -20%.
Result: Satisfied

Task: Answer whether hERG current change (%, negative = inhibition) at 1uM of CCCCCCNC(=O)c1cc(-c2ccco2)nc2ccccc12 is greater than or equal to -20%.
Result: Satisfied

Task: Answer whether hERG current change (%, negative = inhibition) at 1uM of O=C(NCCN1CCOCC1)/C(=C\c1ccc(Br)cc1)NC(=O)c1cccs1 is greater than or equal to -20%.
Result: Not satisfied

Task: Answer whether hERG current change (%, negative = inhibition) at 1uM of Cc1ccc(CN2CCN(CCCc3ccccc3)CC2CCO)cc1 (centres unmarked) is greater than or equal to -20%.
Result: Not satisfied

Task: Answer whether hERG current change (%, negative = inhibition) at 1uM of CCNC(=O)NC(=O)C(C)N1C(=O)NC(c2ccccc2)(c2ccccc2)C1=O (centres unmarked) is greater than or equal to -20%.
Result: Satisfied

Task: Answer whether hERG current change (%, negative = inhibition) at 1uM of O=C(CNc1ccc(F)cc1)N/N=C/c1c(O)ccc2ccccc12 is greater than or equal to -20%.
Result: Satisfied

Task: Answer whether hERG current change (%, negative = inhibition) at 1uM of COc1ccc(CN2CCN(CCc3ccccc3)C(CCO)C2)c(O)c1 (centres unmarked) is greater than or equal to -20%.
Result: Not satisfied

Task: Answer whether hERG current change (%, negative = inhibition) at 1uM of Cc1oc(-c2ccoc2)nc1CN(CC1CCC(=O)N1)C(C)C (centres unmarked) is greater than or equal to -20%.
Result: Satisfied

Task: Answer whether hERG current change (%, negative = inhibition) at 1uM of OCCC1CN(CCCc2ccccc2)CCN1CCc1ccccc1 (centres unmarked) is greater than or equal to -20%.
Result: Not satisfied

Task: Answer whether hERG current change (%, negative = inhibition) at 1uM of O=C(CSc1ccc2nnc(-c3ccccc3)n2n1)NCc1ccco1 is greater than or equal to -20%.
Result: Not satisfied

Task: Answer whether hERG current change (%, negative = inhibition) at 1uM of CSc1ccc(/C=C(/NC(=O)c2ccccc2)C(=O)NCCN2CCOCC2)cc1 is greater than or equal to -20%.
Result: Satisfied

Task: Answer whether hERG current change (%, negative = inhibition) at 1uM of COc1ccc(CN2CCN(CCCc3ccccc3)C(CCO)C2)c(O)c1 (centres unmarked) is greater than or equal to -20%.
Result: Not satisfied

Task: Answer whether hERG current change (%, negative = inhibition) at 1uM of O=C(NCCO)/C(=C/c1ccc(Br)cc1)NC(=O)c1cccs1 is greater than or equal to -20%.
Result: Satisfied

Task: Answer whether hERG current change (%, negative = inhibition) at 1uM of CC/C(=C\c1oc2cc3ccccc3cc2[n+]1CC)Nc1ccccc1.[I-] is greater than or equal to -20%.
Result: Not satisfied

Task: Answer whether hERG current change (%, negative = inhibition) at 1uM of COc1ccc(O)c(CN2CCN(CCCc3ccccc3)C(CCO)C2)c1 (centres unmarked) is greater than or equal to -20%.
Result: Not satisfied

Task: Answer whether hERG current change (%, negative = inhibition) at 1uM of COc1ccc(NC(=O)NCCCN2CCN(c3ccccc3F)CC2)cc1 is greater than or equal to -20%.
Result: Satisfied

Task: Answer whether hERG current change (%, negative = inhibition) at 1uM of CCN(CC)CCNC(=O)c1ccc(NC(=O)c2cc(-c3ccco3)nc3ccccc23)cc1 is greater than or equal to -20%.
Result: Satisfied

Task: Answer whether hERG current change (%, negative = inhibition) at 1uM of Cc1noc(C)c1C(=O)Nc1nc2ccc(F)cc2s1 is greater than or equal to -20%.
Result: Satisfied

Task: Answer whether hERG current change (%, negative = inhibition) at 1uM of C=CCN1N=C(c2ccc(Cl)s2)CSC1=O is greater than or equal to -20%.
Result: Satisfied

Task: Answer whether hERG current change (%, negative = inhibition) at 1uM of Cc1ccc(-c2nnc3ccc(SCC(=O)NCc4ccco4)nn23)cc1 is greater than or equal to -20%.
Result: Satisfied

Task: Answer whether hERG current change (%, negative = inhibition) at 1uM of Cc1ccc(NC(=O)c2cc(C)on2)cc1 is greater than or equal to -20%.
Result: Satisfied

Task: Answer whether hERG current change (%, negative = inhibition) at 1uM of Cc1cc(C)cc(N(C(=O)CCC(=O)Nc2ccccn2)C(C(=O)NC(C)C)c2ccc(O)cc2)c1 (centres unmarked) is greater than or equal to -20%.
Result: Satisfied

Task: Answer whether hERG current change (%, negative = inhibition) at 1uM of CCCCN(C)C1=Nc2cccc3cccc1c23 is greater than or equal to -20%.
Result: Not satisfied

Task: Answer whether hERG current change (%, negative = inhibition) at 1uM of COc1ccc(CNC(=O)C(C)N2C(=O)NC(c3ccccc3)(c3ccccc3)C2=O)cc1 (centres unmarked) is greater than or equal to -20%.
Result: Not satisfied

Task: Answer whether hERG current change (%, negative = inhibition) at 1uM of CSc1ccc(/C=C(\NC(=O)c2ccccc2)C(=O)NCCN2CCOCC2)cc1 is greater than or equal to -20%.
Result: Not satisfied

Task: Answer whether hERG current change (%, negative = inhibition) at 1uM of CN(CC(=O)Nc1ccccc1Cl)C(=O)COC(=O)c1nc(Cl)c(Cl)c(Cl)c1Cl is greater than or equal to -20%.
Result: Satisfied

Task: Answer whether hERG current change (%, negative = inhibition) at 1uM of CCc1noc(C)c1C(=O)Nc1sc(C(=O)N(C)C)c(C)c1C(=O)OC is greater than or equal to -20%.
Result: Satisfied

Task: Answer whether hERG current change (%, negative = inhibition) at 1uM of CCCCON1C(=O)c2cccc3cccc(c23)C1=O is greater than or equal to -20%.
Result: Satisfied

Task: Answer whether hERG current change (%, negative = inhibition) at 1uM of CC(C(=O)NC(N)=O)N1C(=O)NC(c2ccccc2)(c2ccccc2)C1=O (centres unmarked) is greater than or equal to -20%.
Result: Satisfied

Task: Answer whether hERG current change (%, negative = inhibition) at 1uM of COc1ccc(/C=N/Nc2ccc(C(F)(F)F)cc2[N+](=O)[O-])cc1O is greater than or equal to -20%.
Result: Satisfied

Task: Answer whether hERG current change (%, negative = inhibition) at 1uM of O=C(NCCCN1CCOCC1)/C(=C/c1ccc(F)cc1)NC(=O)c1ccccc1 is greater than or equal to -20%.
Result: Not satisfied

Task: Answer whether hERG current change (%, negative = inhibition) at 1uM of O=C(NCCCn1cccn1)C1CCC(=O)N(Cc2ccccc2F)C1 (centres unmarked) is greater than or equal to -20%.
Result: Satisfied

Task: Answer whether hERG current change (%, negative = inhibition) at 1uM of CCOCCn1c(=O)c2c(nc3n2CC(C)CN3Cc2ccccc2)n(C)c1=O (centres unmarked) is greater than or equal to -20%.
Result: Satisfied

Task: Answer whether hERG current change (%, negative = inhibition) at 1uM of O=C(CN(C(=O)c1csnn1)c1ccccc1C(F)(F)F)NC1CCCCC1 is greater than or equal to -20%.
Result: Satisfied

Task: Answer whether hERG current change (%, negative = inhibition) at 1uM of CCN(CC)CCNC(=O)c1cc(-c2ccco2)nc2ccccc12.Cl is greater than or equal to -20%.
Result: Not satisfied

Task: Answer whether hERG current change (%, negative = inhibition) at 1uM of CC(NC(=O)CCC(=O)N1CCCCCC1)c1ccccc1 (centres unmarked) is greater than or equal to -20%.
Result: Satisfied

Task: Answer whether hERG current change (%, negative = inhibition) at 1uM of COc1cc2c(cc1OC)CN(c1nc(CN3CCCC3)nc3sc(C)c(C)c13)CC2 is greater than or equal to -20%.
Result: Not satisfied

Task: Answer whether hERG current change (%, negative = inhibition) at 1uM of CCOCCn1c(=O)c2c(nc3n2CC(C)CN3CCc2ccccc2)n(C)c1=O (centres unmarked) is greater than or equal to -20%.
Result: Not satisfied
